- Subject of test: T1, Cdc25, P04821
- T1 sequence (P04821 50-136, looked up): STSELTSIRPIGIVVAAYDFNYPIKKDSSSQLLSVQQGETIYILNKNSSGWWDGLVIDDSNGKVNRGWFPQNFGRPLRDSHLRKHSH
- Assay overview: SPOT array
- Condition info: median of control spots 969
Measured endpoint: SPOT intensity

Solved cases (5 shown):
>>> numeric_result("TSIEIPKRSPLRFTS")
13
>>> numeric_result("EREKALPPIPFTTTL")
0
>>> numeric_result("SSTPTTPERPKRKSG")
1
>>> numeric_result("LFMKGTPEFPKSGFS")
0
>>> numeric_result("TKRKRPARLIFYDSK")
61

A: DTFLPPPPPPPSNFE
B: DHPKGPPPPPPPDEK
C: KDKSRPPRPPPKPLH
D: IFLRISINFPLNYPN
Sort the 4 binders by SPOT intensity; largest first, smallest last. A complete answer lists every label in the requested sequence.
D, B, C, A
(D: 91, B: 6, C: 2, A: 0)
